These data points were gathered from patent US20120207760A1.

target_or_test_system: recombinant homotrimeric HA, A/Vietnam/1203/04 H5N1 (Influenza A virus A/Vietnam/1203/04 (H5N1))
measurement_notes: trimeric HA microarray, transfection set 5
experimental_conditions: remark: other sources report otherwise
quantity_measured: Trimeric HA Binding RLU (RLU)

binder | quantity_measured | result
TCN-557 (5081_A04) (antibody, V domains shown) VH: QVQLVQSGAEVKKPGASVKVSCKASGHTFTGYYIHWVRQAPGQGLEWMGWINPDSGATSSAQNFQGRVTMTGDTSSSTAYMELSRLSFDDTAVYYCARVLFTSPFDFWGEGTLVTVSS VL: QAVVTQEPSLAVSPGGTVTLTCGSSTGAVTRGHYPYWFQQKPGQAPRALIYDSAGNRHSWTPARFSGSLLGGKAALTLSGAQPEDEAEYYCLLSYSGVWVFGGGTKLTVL | Trimeric HA Binding RLU | 21300
TCN-553 (5261_C18) (antibody, V domains shown) VH: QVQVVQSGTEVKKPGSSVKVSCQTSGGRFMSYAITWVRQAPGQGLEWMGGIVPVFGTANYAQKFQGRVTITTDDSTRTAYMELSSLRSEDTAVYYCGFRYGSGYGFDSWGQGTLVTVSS VL: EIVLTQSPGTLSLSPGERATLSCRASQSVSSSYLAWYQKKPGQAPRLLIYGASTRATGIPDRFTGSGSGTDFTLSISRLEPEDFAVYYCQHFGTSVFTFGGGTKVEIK | Trimeric HA Binding RLU | 19200
TCN-551 (5243_D01) (antibody, V domains shown) VH: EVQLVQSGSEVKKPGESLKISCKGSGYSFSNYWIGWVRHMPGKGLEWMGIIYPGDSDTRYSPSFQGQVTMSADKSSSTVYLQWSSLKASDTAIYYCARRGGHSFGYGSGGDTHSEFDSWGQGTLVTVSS VL: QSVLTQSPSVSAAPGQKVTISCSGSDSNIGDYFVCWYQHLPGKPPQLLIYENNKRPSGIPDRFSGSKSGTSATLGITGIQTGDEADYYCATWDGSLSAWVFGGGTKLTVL | Trimeric HA Binding RLU | 41900
